- System: SK-MEL-5 melanoma
- method: NCI-60 one-dose screen, 48 h (100 = growth as untreated, 0 = no growth, -100 = all killed)
- particulars: 10 µM unless noted
About 83,000 compounds went through this panel and 20% of them were active in at least one assay; those are over-represented in the sample as a whole.
Lab note: class by growth, see low bracket (below 30%), middle bracket (30% to below 90%), high bracket (90% or more)

molecule=Nc1cnc(C(=O)NNc2nc3cc(F)ccc3n3cccc23)cn1 class_label="middle bracket"
molecule=c1ccc2cc(C[n+]3ccn(CCCCCCCCCCn4cc[n+](Cc5ccc6ccccc6c5)c4)c3)ccc2c1 class_label="low bracket"
molecule=COC(=O)[C@]1(C)CCC[C@]2(C)[C@H]3C[C@H]4C(C(C)C)=C[C@]3(CC[C@H]21)[C@@H]1C(=O)CC[C@H](OCCC#N)[C@@H]14 class_label="middle bracket"
molecule="C=C1CC[C@@H]2[C@](C)(COC(C)=O)[C@H](OC(C)=O)CC[C@@]2(C)[C@@H]1CC(Nc1ccc(S(=O)(=O)Nc2ncccn2)cc1)C1=CCOC1=O (some centres undefined)" class_label="low bracket"
molecule=COc1ccccc1NC(=O)N=Nc1c(O)[nH]c2ccccc12 class_label="high bracket"
molecule=COCCOc1cc2ncnc(N3CCN(c4ncc(S(=O)(=O)N5CCCCC5)cn4)CC3)c2cc1OCCOC class_label="high bracket"
molecule=COc1cc2c(cc1OCCCN1CCN(CCCOc3cc4c(cc3OC)C(=O)N3CC(F)(F)C[C@H]3C=N4)CC1)N=C[C@@H]1CC(F)(F)CN1C2=O class_label="low bracket"
molecule="CCOC(=O)C1=C(C)NC(=O)NC1c1c(Cl)n(CCCl)c2ccccc12 (centres undefined)" class_label="high bracket"
molecule=Oc1c(I)cc(I)cc1CNCc1ccccn1 class_label="middle bracket"
molecule=COc1c(B(O)O)cccc1-c1nc2c(F)cc3[nH]ncc3c2c2c1CCCC2 class_label="low bracket"
molecule=C[C@@H](CO)[C@@H]1CCC=C2CC[C@]3(C)[C@H](CC[C@@H]4[C@@]5(C)CCCNC(C)(C)[C@@H]5CC[C@]43C)[C@H]21 class_label="middle bracket"
molecule=NC(=O)c1ccc(-c2c3ccccc3cc3c2ccc2ccccc23)cc1 class_label="middle bracket"
molecule=O=C(CN1CCOCC1)Nc1nc(-c2cc3ccccc3oc2=O)cs1 class_label="high bracket"
molecule=COc1ccc(-c2noc(C(=O)O)c2-c2cc(OC)c(OC)c(OC)c2)cc1 class_label="low bracket"
molecule=CN1C(=O)/C(=C\c2c(Cl)cccc2Cl)c2ccccc21 class_label="middle bracket"
molecule=Oc1c(I)cc(I)cc1CNCCN(Cc1ccccn1)Cc1ccccn1 class_label="low bracket"
molecule=Cn1cc(-c2nonc2-c2cn(C)c3ccccc23)c2ccccc21 class_label="low bracket"

---

- Tested on: OVCAR-3 ovarian
- method: NCI-60 one-dose screen, 48 h
- particulars: 10 µM unless noted
About 83,000 compounds went through this panel and 20% of them were active in at least one assay; those are over-represented in the sample as a whole. Calls of active or inactive are those of the source. How the source made its calls: active means growth percent below 10; inactive means the rest.
Possible outcomes: YES (active), NO (inactive)

molecule=Cc1ccc2c(Cn3cc(CSc4nc5ccccc5o4)nn3)cc(=O)oc2c1 experimental_target="OVCAR-3 ovarian" class_label=NO
molecule=COc1ccc2c(c1OC)CO[C@@H]2[C@H]1c2c(cc3c(c2OC)OCO3)CCN1S(=O)(=O)c1cn(C)cn1 experimental_target="OVCAR-3 ovarian" class_label=YES
molecule=Clc1ccc2c(c1)C(c1c[nH]c3ccccc13)(c1c[nH]c3ccccc13)CCO2 experimental_target="OVCAR-3 ovarian" class_label=NO
molecule=COc1ccc(/C=N\Nc2nc(SCCC(C)C)nc(-c3ccc(OC)cc3)c2C#N)cc1 experimental_target="OVCAR-3 ovarian" class_label=NO
molecule=COc1ccc2c(c1)CC[C@H](O)/C2=C/c1cc(OC)c(OC)c(OC)c1 experimental_target="OVCAR-3 ovarian" class_label=YES
molecule="CC(C)(C)[Si](C)(C)OC1[C@@H](CNC(=O)NC(=O)NC(N)=O)O[C@@H](n2cnc3c(NC(=O)Nc4ccccc4)ncnc32)[C@H]1O[Si](C)(C)C(C)(C)C (some centres undefined)" experimental_target="OVCAR-3 ovarian" class_label=NO
molecule=CN(C)c1ccc(-c2c(C#N)c(N)nn2C(=O)c2ccc(NC(=O)c3ccccn3)cc2)cc1 experimental_target="OVCAR-3 ovarian" class_label=NO
molecule=CSc1nc2ccccc2cc1/C=C1/C=C(c2ccccc2)NC1=O experimental_target="OVCAR-3 ovarian" class_label=NO
molecule=N=C(N)c1ccc(-c2ccc(-c3ccc(Cl)cc3Cl)s2)cc1 experimental_target="OVCAR-3 ovarian" class_label=YES
molecule="CC1OC(n2c3ccccc3c3c4c(c5c6ccccc6[nH]c5c32)C(=O)N(CCN2CCCC2)C4=O)CC(O)C1O (centres undefined)" experimental_target="OVCAR-3 ovarian" class_label=NO
molecule=N#Cc1nc(-c2ccc(F)cc2)oc1S(=O)(=O)N1CCOCC1 experimental_target="OVCAR-3 ovarian" class_label=YES
molecule="CCCCCCCCCCC(CN(CC)CC)C(O)c1ccccc1 (centres undefined)" experimental_target="OVCAR-3 ovarian" class_label=NO
molecule=O=C(/C=C/c1ccco1)Nc1ncc(Cc2cccc(C(F)(F)F)c2)s1 experimental_target="OVCAR-3 ovarian" class_label=YES
molecule=N#Cc1nc(-c2ccc(Cl)cc2)oc1S(=O)(=O)N1CCN(c2ccc(F)cc2)CC1 experimental_target="OVCAR-3 ovarian" class_label=NO
molecule=CCCCNC(=O)Oc1ccc(/C(=C(/C)Cc2ccc(OC)cc2)c2ccc(OCCN(CC)CC)cc2)cc1 experimental_target="OVCAR-3 ovarian" class_label=NO
molecule=CNc1nnc2n(-c3ccccc3)c(=O)c3cnn(-c4ccccc4)c3n12 experimental_target="OVCAR-3 ovarian" class_label=NO
molecule=NS(=O)(=O)c1ccc(N=Nc2c(O)n(Cc3ccccc3)c3ccc(Cl)cc23)cc1 experimental_target="OVCAR-3 ovarian" class_label=NO
molecule=COc1ccc(C(=O)N2c3ccccc3Sc3ccccc32)c(OC)c1 experimental_target="OVCAR-3 ovarian" class_label=YES
molecule=CC(C)c1ccc(C(=O)Nc2nc3ccc(O)c(CN(C)C)c3s2)cc1 experimental_target="OVCAR-3 ovarian" class_label=NO

# credit: PubChem BioAssay (NCI)
